- system.tested: F508del-CFTR (Homo sapiens (Human), UniProt P13569, DEL508-508)
- Sequence (P13569 other isoform, or with tags, fused parts or gaps del F508-F508): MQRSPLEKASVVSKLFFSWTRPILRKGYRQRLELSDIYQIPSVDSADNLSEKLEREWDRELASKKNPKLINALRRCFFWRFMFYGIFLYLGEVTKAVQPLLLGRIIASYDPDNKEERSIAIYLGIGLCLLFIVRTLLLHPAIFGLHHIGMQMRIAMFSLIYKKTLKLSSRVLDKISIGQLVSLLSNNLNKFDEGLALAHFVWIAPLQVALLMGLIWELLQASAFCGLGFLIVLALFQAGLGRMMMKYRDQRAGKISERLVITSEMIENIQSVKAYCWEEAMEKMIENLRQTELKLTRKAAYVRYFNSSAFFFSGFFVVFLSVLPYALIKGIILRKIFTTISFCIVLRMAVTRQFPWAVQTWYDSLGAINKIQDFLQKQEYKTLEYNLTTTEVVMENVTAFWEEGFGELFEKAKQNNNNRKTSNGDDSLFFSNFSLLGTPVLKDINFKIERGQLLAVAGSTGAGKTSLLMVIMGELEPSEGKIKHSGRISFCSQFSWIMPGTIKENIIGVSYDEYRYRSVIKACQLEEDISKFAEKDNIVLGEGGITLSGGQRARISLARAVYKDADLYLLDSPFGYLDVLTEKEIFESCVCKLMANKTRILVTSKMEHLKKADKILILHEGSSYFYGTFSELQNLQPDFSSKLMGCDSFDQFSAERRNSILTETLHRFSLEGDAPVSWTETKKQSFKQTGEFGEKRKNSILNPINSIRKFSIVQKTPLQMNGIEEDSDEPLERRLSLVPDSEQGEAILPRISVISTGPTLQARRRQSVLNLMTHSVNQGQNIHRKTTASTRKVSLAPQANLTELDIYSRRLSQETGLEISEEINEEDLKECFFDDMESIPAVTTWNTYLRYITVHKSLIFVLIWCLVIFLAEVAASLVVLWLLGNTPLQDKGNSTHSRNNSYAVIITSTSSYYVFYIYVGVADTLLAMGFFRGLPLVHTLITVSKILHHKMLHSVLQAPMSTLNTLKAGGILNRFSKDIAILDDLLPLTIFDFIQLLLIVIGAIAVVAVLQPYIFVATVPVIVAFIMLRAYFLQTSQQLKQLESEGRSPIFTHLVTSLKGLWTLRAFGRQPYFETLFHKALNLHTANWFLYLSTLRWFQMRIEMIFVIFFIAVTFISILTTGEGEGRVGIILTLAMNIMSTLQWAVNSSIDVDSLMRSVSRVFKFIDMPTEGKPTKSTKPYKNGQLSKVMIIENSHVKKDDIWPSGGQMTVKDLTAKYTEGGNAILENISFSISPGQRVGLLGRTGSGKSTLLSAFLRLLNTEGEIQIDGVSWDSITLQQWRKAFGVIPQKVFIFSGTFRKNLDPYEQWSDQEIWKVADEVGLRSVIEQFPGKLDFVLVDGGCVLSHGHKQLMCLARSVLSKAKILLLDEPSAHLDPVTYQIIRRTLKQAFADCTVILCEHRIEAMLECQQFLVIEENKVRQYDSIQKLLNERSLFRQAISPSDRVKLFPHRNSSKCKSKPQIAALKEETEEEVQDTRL
- assay.remarks: Membrane potential optical (fluorescent voltage sensing dye, FLIPR III) HTS assay for F508del-CFTR modulators
- Format: cell-based
- test.settings: Table 9; read-out: CFTR dF508 EC50
Can you tell me EC50 for the items I'm about to list?
Kindly answer with a numeric value in nM, unit omitted.

# input Give its EC50 value. Item: Cc1ccccc1S(=O)(=O)NC(=O)c1ccc(-n2ccc(OCC3C(C)(C)C3(C)C)n2)nc1N1C[C@@H](C)CC1(C)C
# output 20

# input Subsequent entry: C[C@@H]1CN(c2nc(-n3ccc(OCC4(C(F)(F)F)CC4)n3)ccc2C(=O)NS(=O)(=O)c2ccc(O)cc2)C(C)(C)C1
# output 120

# input Subsequent entry: C[C@@H]1CN(c2nc(-n3ccc(OCC4(C(F)(F)F)CC4)n3)ccc2C(=O)NS(=O)(=O)c2ccccc2F)C(C)(C)C1
# output 30

# input Subsequent entry: C[C@@H]1CN(c2nc(-n3ccc(OCC4(C(F)F)CC4)n3)ccc2C(=O)NS(=O)(=O)c2ccccc2)C(C)(C)C1
# output 50

# input Subsequent entry: Cc1ccccc1S(=O)(=O)NC(=O)c1ccc(-n2ccc(OCC3(C(F)(F)F)CCC3)n2)nc1N1C[C@@H](C)CC1(C)C
# output 50
